Entry source: the supplement of paper PMC6757056

B1: library; a variant is named by its letters at N, in order (parent)
chain: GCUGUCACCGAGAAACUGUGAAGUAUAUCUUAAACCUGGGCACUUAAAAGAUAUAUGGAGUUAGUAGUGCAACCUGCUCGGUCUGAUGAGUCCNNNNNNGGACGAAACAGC

variants of: B1; experiment: FACS-Seq fitted mean relative fluorescence mCherry/BFP with ligand (log10 relative fluorescence); HEK293T; ligand: cyclic di-GMP (c-di-GMP-II aptamer); ligand concentration (+) FACS-Seq: 1 mM; higher = higher reporter protein expression; conditions: ligand present: yes
Measured endpoint: FACS-Seq fitted mean (log10)
Numbers only.

# Variant identifier, Result value
records = [
    ("CCCCAU", 0.163),
    ("AGACGU", -0.759),
    ("CGUCGA", 0.0661),
    ("AUUGGA", -0.102),
    ("CCCCUU", 0.125),
    ("GUGGUG", -0.117),
    ("ACCAGU", 0.00485),
    ("CUGAUG", -0.526),
    ("UUUUCG", 0.00347),
    ("CAUUUA", -0.291),
]

Ask | Quick check: FACS-Seq fitted mean (log10) of GCAAAC ?
Reply | -0.0625
